molecular target: CDK4/Cyclin D1 (Homo sapiens); construct: purchased ProQinase; host or cells: insect cell; assay: CDK4/CyclinD1 Enzymatic Activity Assay (TR-FRET); type: biochemical; conditions: ATP 2 mM final, read-out: CDK4_D1 IC50
ENDPOINT NAME: IC50

- MOLECULE: "Cn1cnc(S(=O)(=O)N2CCC(Nc3ncc(C(F)(F)F)c(-c4cc(C(N)=O)c(CC(C)(C)O)s4)n3)CC2)c1 [Example 45]"
  SYSTEM NAME: "CDK4/Cyclin D1 (Homo sapiens)"
  ASSAY RESULT: "≤ 100 nM"
- MOLECULE: "Cc1cnc(-c2nc(N[C@H]3CCN(S(=O)(=O)c4cn(C)cn4)C[C@H]3C)ncc2C(F)(F)F)s1 [Example 64]"
  SYSTEM NAME: "CDK4/Cyclin D1 (Homo sapiens)"
  ASSAY RESULT: "100 to 500 nM"
- MOLECULE: "Cc1cnc(-c2nc(NC3CCN(S(=O)(=O)c4cnn(C)c4)CC3)ncc2C(F)(F)F)s1 [Example 2]"
  SYSTEM NAME: "CDK4/Cyclin D1 (Homo sapiens)"
  ASSAY RESULT: "≤ 100 nM"
- MOLECULE: "CC(O)c1sc(-c2nc(N[C@H]3CCN(S(=O)(=O)c4cn(C)cn4)C[C@H]3F)ncc2C(F)(F)F)cc1C#N (some centres unmarked) [Example 35]"
  SYSTEM NAME: "CDK4/Cyclin D1 (Homo sapiens)"
  ASSAY RESULT: "≤ 100 nM"
- MOLECULE: "Cc1sc(-c2nc(N[C@H]3CCN(S(C)(=O)=O)C[C@H]3C)ncc2C(F)(F)F)cc1C#N [Example 54]"
  SYSTEM NAME: "CDK4/Cyclin D1 (Homo sapiens)"
  ASSAY RESULT: "> 500 nM"
- MOLECULE: "C[C@@H]1CN(S(=O)(=O)c2cn(C)cn2)CC[C@@H]1Nc1ncc(C(F)(F)F)c(-c2cc(C#N)c(CC(C)(C)O)s2)n1 [Example 40]"
  SYSTEM NAME: "CDK4/Cyclin D1 (Homo sapiens)"
  ASSAY RESULT: "100 to 500 nM"
- MOLECULE: "COc1cc(-c2nc(NC3CCN(S(C)(=O)=O)CC3)ncc2C(F)(F)F)sc1C [Example 76]"
  SYSTEM NAME: "CDK4/Cyclin D1 (Homo sapiens)"
  ASSAY RESULT: "100 to 500 nM"
- MOLECULE: "Cc1sc(-c2nc(N[C@H]3CCN(S(C)(=O)=O)C[C@H]3C)ncc2C(F)(F)F)cc1C(N)=O [Example 52]"
  SYSTEM NAME: "CDK4/Cyclin D1 (Homo sapiens)"
  ASSAY RESULT: "100 to 500 nM"

###

molecular target: CDK4/Cyclin D1 (Homo sapiens, UniProt P11802); test: CDK4/CyclinD1 Enzymatic Activity Assay (TR-FRET); conditions: ATP 2 mM final, read-out: CDK4_D1 IC50
Sequence (P11802 whole entry): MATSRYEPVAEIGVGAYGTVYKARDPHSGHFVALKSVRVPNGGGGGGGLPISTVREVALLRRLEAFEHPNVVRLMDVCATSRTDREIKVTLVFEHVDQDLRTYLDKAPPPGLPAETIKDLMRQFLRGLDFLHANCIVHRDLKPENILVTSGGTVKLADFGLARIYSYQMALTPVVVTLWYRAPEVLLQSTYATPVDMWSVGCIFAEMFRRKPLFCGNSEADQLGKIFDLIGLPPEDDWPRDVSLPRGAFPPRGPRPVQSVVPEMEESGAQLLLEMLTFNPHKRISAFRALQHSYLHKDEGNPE
Sequence (P24385 whole entry partner): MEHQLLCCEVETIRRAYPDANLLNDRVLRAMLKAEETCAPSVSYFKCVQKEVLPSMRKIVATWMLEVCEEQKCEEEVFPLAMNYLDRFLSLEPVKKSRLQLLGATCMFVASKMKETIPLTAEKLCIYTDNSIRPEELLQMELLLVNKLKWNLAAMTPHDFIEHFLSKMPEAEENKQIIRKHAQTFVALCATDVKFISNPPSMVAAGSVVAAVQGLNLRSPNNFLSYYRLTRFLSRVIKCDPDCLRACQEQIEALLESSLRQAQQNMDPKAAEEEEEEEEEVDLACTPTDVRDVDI
ENDPOINT NAME: IC50

- MOLECULE: "Cn1cnc(S(=O)(=O)N2CCC(Nc3ncc(C(F)(F)F)c(-c4nccs4)n3)CC2)c1 [Example 59]"
  ASSAY RESULT: "≤ 100 nM"
- MOLECULE: "Cc1cc(-c2nc(NC3CCN(S(=O)(=O)c4cnn(C)c4)CC3)ncc2C(F)(F)F)sn1 [Example 77]"
  ASSAY RESULT: "> 500 nM"
- MOLECULE: "Cn1cc(S(=O)(=O)N2CC[C@H](Nc3ncc(C(F)(F)F)c(-c4ncc(CC(C)(C)O)s4)n3)[C@H](F)C2)cn1 [Example 109]"
  ASSAY RESULT: "≤ 100 nM"
- MOLECULE: "CC(C)(O)Cc1cnc(-c2nc(NC3CCN(S(C)(=O)=O)CC3)ncc2C(F)(F)F)s1 [Example 107]"
  ASSAY RESULT: "≤ 100 nM"
- MOLECULE: "Cc1sc(-c2nc(N[C@H]3CCN(S(=O)(=O)c4cnn(C)c4)C[C@H]3C)ncc2C(F)(F)F)cc1C#N [Example 85]"
  ASSAY RESULT: "100 to 500 nM"
- MOLECULE: "Cn1cc(S(=O)(=O)N2CCC(Nc3ncc(C(F)(F)F)c(-c4cc(C(N)=O)c(CC(C)(C)O)s4)n3)CC2)cn1 [Example 51]"
  ASSAY RESULT: "≤ 100 nM"
- MOLECULE: "Cc1sc(-c2nc(NC3CCN(S(=O)(=O)c4cnc(N)s4)CC3)ncc2C(F)(F)F)cc1C#N [Example 93]"
  ASSAY RESULT: "100 to 500 nM"
- MOLECULE: "CC(O)c1sc(-c2nc(N[C@H]3CCN(S(=O)(=O)c4cnn(C)c4)C[C@H]3F)ncc2C(F)(F)F)cc1C#N (stereo partly shown) [Example 34]"
  ASSAY RESULT: "≤ 100 nM"
- MOLECULE: "Cc1cnc(-c2nc(N[C@@H]3CCN(S(=O)(=O)c4cn(C)cn4)C[C@H]3F)ncc2C(F)(F)F)s1 [Example 29]"
  ASSAY RESULT: "≤ 100 nM"
- MOLECULE: "Cn1cc(S(=O)(=O)N2CC[C@H](Nc3ncc(C(F)(F)F)c(-c4cc(C(N)=O)cs4)n3)[C@H](F)C2)cn1 [Example 11]"
  ASSAY RESULT: "≤ 100 nM"
- MOLECULE: "Cn1cc(S(=O)(=O)N2CCC(Nc3ncc(C(F)(F)F)c(-c4cc(C(N)=O)cs4)n3)CC2)cn1 [Example 74]"
  ASSAY RESULT: "≤ 100 nM"
- MOLECULE: "Cc1sc(-c2nc(N[C@H]3CCN(S(=O)(=O)c4cnn(C)c4)C[C@H]3C)ncc2C(F)(F)F)cc1C(N)=O [Example 23]"
  ASSAY RESULT: "≤ 100 nM"
- MOLECULE: "CC(=O)c1cc(-c2nc(NC3CCN(S(=O)(=O)c4cnn(C)c4)CC3)ncc2C(F)(F)F)sc1C [Example 81]"
  ASSAY RESULT: "≤ 100 nM"
- MOLECULE: "CC(O)c1cnc(-c2nc(NC3CCN(S(=O)(=O)c4c[nH]cn4)CC3)ncc2C(F)(F)F)s1 (stereo not shown) [Example 57]"
  ASSAY RESULT: "≤ 100 nM"
- MOLECULE: "Cn1cc(S(=O)(=O)N2CC[C@@H](Nc3ncc(C(F)(F)F)c(-c4cc(C(N)=O)c(CC(C)(C)O)s4)n3)[C@H](F)C2)cn1 [Example 48]"
  ASSAY RESULT: "≤ 100 nM"
- MOLECULE: "Cn1cc(S(=O)(=O)N2CC[C@H](Nc3ncc(C(F)(F)F)c(-c4cc(C#N)c(CC(C)(C)O)s4)n3)[C@H](F)C2)cn1 [Example 41]"
  ASSAY RESULT: "≤ 100 nM"
- MOLECULE: "Cc1sc(-c2nc(N[C@H]3CCN(S(C)(=O)=O)C[C@H]3F)ncc2C(F)(F)F)cc1C(N)=O [Example 9]"
  ASSAY RESULT: "≤ 100 nM"
- MOLECULE: "Cn1cnc(S(=O)(=O)N2CCC(Nc3ncc(C(F)(F)F)c(-c4cc(C#N)c(CC(C)(C)O)s4)n3)CC2)c1 [Example 39]"
  ASSAY RESULT: "≤ 100 nM"
- MOLECULE: "Cc1sc(-c2nc(NC3CCN(S(C)(=O)=O)CC3)ncc2C(F)(F)F)cc1C(N)=O [Example 70]"
  ASSAY RESULT: "≤ 100 nM"
- MOLECULE: "Cc1sc(-c2nc(N[C@H]3CCN(S(=O)(=O)c4cn(C)cn4)C[C@H]3C)ncc2C(F)(F)F)cc1C(N)=O [Example 24]"
  ASSAY RESULT: "≤ 100 nM"
- MOLECULE: "CC(C)(O)Cc1cnc(-c2nc(N[C@H]3CCN(S(C)(=O)=O)C[C@H]3F)ncc2C(F)(F)F)s1 [Example 108]"
  ASSAY RESULT: "≤ 100 nM"
- MOLECULE: "Cc1sc(-c2nc(NC3CCN(S(=O)(=O)c4c[nH]cn4)CC3)ncc2C(F)(F)F)cc1C#N [Example 55]"
  ASSAY RESULT: "≤ 100 nM"
- MOLECULE: "Cc1sc(-c2nc(NC3CCN(S(=O)(=O)c4cnn(C)c4)CC3)ncc2C(F)(F)F)cc1C#N [Example 72]"
  ASSAY RESULT: "≤ 100 nM"
- MOLECULE: "Cn1cnc(S(=O)(=O)N2CC[C@@H](Nc3ncc(C(F)(F)F)c(-c4cc(C(N)=O)cs4)n3)[C@H](F)C2)c1 [Example 14]"
  ASSAY RESULT: "≤ 100 nM"
- MOLECULE: "CC(O)c1cnc(-c2nc(NC3CCN(S(=O)(=O)c4cn[nH]c4)CC3)ncc2C(F)(F)F)s1 (stereo not shown) [Example 56]"
  ASSAY RESULT: "≤ 100 nM"
- MOLECULE: "Cn1cc(S(=O)(=O)N2CCC(Nc3ncc(C(F)(F)F)c(-c4cc(C#N)ns4)n3)CC2)cn1 [Example 91]"
  ASSAY RESULT: "100 to 500 nM"
- MOLECULE: "C[C@@H]1CN(S(C)(=O)=O)CC[C@@H]1Nc1ncc(C(F)(F)F)c(-c2ncc(CC(C)(C)O)s2)n1 [Example 131]"
  ASSAY RESULT: "100 to 500 nM"
- MOLECULE: "C[C@@H]1CN(S(C)(=O)=O)CC[C@@H]1Nc1ncc(C(F)(F)F)c(-c2ncc(C(C)(C)O)s2)n1 [Example 132]"
  ASSAY RESULT: "100 to 500 nM"

// data source = patent US20240150340A1
